target: CYP2C9 (Homo sapiens (Human)); assay: Cytochrome P450 activity inhibition, CYP2C9; format: in vitro ADME; details: 10 μM, human liver microsomes
Sequence (P11712 whole entry): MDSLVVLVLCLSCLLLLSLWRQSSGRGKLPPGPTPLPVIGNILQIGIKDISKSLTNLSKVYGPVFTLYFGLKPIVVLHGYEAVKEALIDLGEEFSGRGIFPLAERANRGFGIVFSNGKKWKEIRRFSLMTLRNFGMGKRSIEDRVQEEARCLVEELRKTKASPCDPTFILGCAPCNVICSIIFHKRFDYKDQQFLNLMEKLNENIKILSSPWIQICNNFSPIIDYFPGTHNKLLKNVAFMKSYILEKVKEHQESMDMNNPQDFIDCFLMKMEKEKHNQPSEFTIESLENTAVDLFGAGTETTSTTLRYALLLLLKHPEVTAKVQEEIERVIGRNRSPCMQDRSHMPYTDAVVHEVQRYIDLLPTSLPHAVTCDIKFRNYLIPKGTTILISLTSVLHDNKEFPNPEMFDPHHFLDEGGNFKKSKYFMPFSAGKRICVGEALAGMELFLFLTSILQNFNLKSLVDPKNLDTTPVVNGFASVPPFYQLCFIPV
Provide the recorded CYP inhibition (% of control) 2C9 for the entries that follow.

Exam item: Look up and report measured CYP inhibition (% of control) 2C9 for this entry: OCCC/C(=C(/c1ccc(C2CCN(C3CC3)CC2)cc1)c1cccc(O)c1)c1ccccc1 [Compound 22r]
Marked response: >100 % of control

Exam item: Look up and report measured CYP inhibition (% of control) 2C9 for this entry: OCCC/C(=C(\c1ccc(O)cc1)c1ccc(C2CCNCC2)cc1)c1ccccc1 [Compound 20j]
Marked response: 77.1 % of control

Exam item: Look up and report measured CYP inhibition (% of control) 2C9 for this entry: CN1CCN(c2ccc(/C(=C(/CCCO)c3ccccc3)c3ccc(Br)cc3)cc2)CC1 [Compound 18e]
Marked response: 91.3 % of control

Exam item: Look up and report measured CYP inhibition (% of control) 2C9 for this entry: OCCC/C(=C(\c1ccc(O)cc1)c1ccc(C2CN(C3CC3)C2)cc1)c1ccccc1 [Compound 22d]
Marked response: >100 % of control

Exam item: Look up and report measured CYP inhibition (% of control) 2C9 for this entry: OCCC/C(=C(\c1ccc(O)cc1)c1ccc(OCCN2C[C@H]3C[C@H]3[C@H]2CO)cc1)c1ccccc1 [Compound 38d]
Marked response: 55.3 % of control

Exam item: Look up and report measured CYP inhibition (% of control) 2C9 for this entry: CCN1CCC(c2ccc(C(=C(CCCO)c3ccccc3)c3cccc(O)c3)cc2)CC1 [Compound 22ae]
Marked response: >100 % of control

Exam item: Look up and report measured CYP inhibition (% of control) 2C9 for this entry: OCCC/C(=C(\c1ccc(O)cc1)c1ccc(C2CCN(C3CCCCC3)CC2)cc1)c1ccccc1 [Compound 22p]
Marked response: 81.8 % of control

Exam item: Look up and report measured CYP inhibition (% of control) 2C9 for this entry: OCCC/C(=C(\c1ccc(Br)cc1)c1ccc(N2CCNCC2)cc1)c1ccccc1 [Compound 20a]
Marked response: 76 % of control

Exam item: Look up and report measured CYP inhibition (% of control) 2C9 for this entry: CN1CCC[C@@H]1COc1ccc(/C(=C(/CCCO)c2ccccc2)c2ccc(O)cc2)cc1 [Compound 6i]
Marked response: 86.7 % of control

Exam item: Look up and report measured CYP inhibition (% of control) 2C9 for this entry: CN1CCN(c2ccc(/C(=C(/CCCO)c3ccccc3)c3ccc(N)cc3)cc2)CC1 [Compound 26a]
Marked response: 53.2 % of control

Exam item: Look up and report measured CYP inhibition (% of control) 2C9 for this entry: CC(C)(C)OC(=O)N1CC(c2ccc(/C(=C(/CCCO)c3ccccc3)c3ccc(O)cc3)cc2)C1 [Compound 18t]
Marked response: 83 % of control

Exam item: Look up and report measured CYP inhibition (% of control) 2C9 for this entry: CC(C)N1CCC(c2ccc(/C(=C(/CCCO)c3ccccc3)c3ccc(O)cc3)cc2)CC1 [Compound 22k]
Marked response: 97 % of control

Exam item: Look up and report measured CYP inhibition (% of control) 2C9 for this entry: CN1CCCC1CCOc1ccc(/C(=C(/CCCO)c2ccccc2)c2ccc(Br)cc2)cc1 (stereo not shown) [Compound 13d]
Marked response: 97 % of control

Exam item: Look up and report measured CYP inhibition (% of control) 2C9 for this entry: CN1CCC[C@H]1CCOc1ccc(/C(=C(/CCCO)c2ccccc2)c2ccc(O)cc2)cc1 [Compound 6j]
Marked response: 85.6 % of control

Exam item: Look up and report measured CYP inhibition (% of control) 2C9 for this entry: OCCC/C(=C(\c1ccc(O)cc1)c1ccc(OCCN2CCC3(CCNC3)C2)cc1)c1ccccc1 (stereo not shown) [Compound 39]
Marked response: 74.4 % of control

Exam item: Look up and report measured CYP inhibition (% of control) 2C9 for this entry: CN1CCC(c2ccc(/C(=C(/CCCO)c3ccccc3)c3cccc(O)c3)cc2)CC1 [Compound 22ac]
Marked response: >100 % of control
